We begin with a simple list: items and their reported inhibition.
# protocol description: blocks MITF activity, primary screen, MITF inhibitor project, cell-based, luminescence (AID 2240);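 also: human melanocyte line stably carrying TRPM1 promoter luciferase reporter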
# experimental context: TRPM1 promoter luciferase, 24 h, active compounds read high, concentration not given here
The campaign covered roughly 37,000 compounds. About 100 (0.27%) were called active. Many of the other results were omitted from the sample, so actives are more common in it than they were.

Worked cases, inhibition given:
                                   compound  recorded_metric         data_value
0  COc1ccccc1NC(=O)CN(c1ccc(Br)c(C)c1)S(C)(=O)=O       inhibition  -1.36% (inactive)
1  C[C@@H]1CCCCO[C@@H](CN(C)C)[C@@H](C)CN([C@H](C)CO)C(=O)c2cc(N(C)C)ccc2O1       inhibition   5.75% (inactive)
2  C[C@H](CO)N1C[C@H](C)[C@H](CN(C)CC2CCCCC2)Oc2ccc(NC(=O)C3CCCCC3)cc2C1=O       inhibition  -9.78% (inactive)
3  Cc1ccc(S(=O)(=O)N(C)C[C@@H]2Oc3ccc(NC(=O)Nc4ccc(F)cc4)cc3C(=O)N([C@H](C)CO)C[C@@H]2C)cc1       inhibition  -19.7% (inactive)
4            O=C(O)CCCC=C(c1ccccc1)c1ccccc1       inhibition   12.2% (inactive)
5  O=C(CCn1nc(-c2ccccc2)c2ccccc2c1=O)Nc1cccc(Br)c1       inhibition   6.27% (inactive)
6  Cc1ccc(NC(=O)C(C)N(c2ccc(Cl)cc2)S(C)(=O)=O)c(C)c1 (centres undefined)       inhibition  -5.76% (inactive)
7  COc1ccc(C)cc1S(=O)(=O)N(C)CC(=O)Nc1ccc(Br)cc1F       inhibition   8.55% (inactive)

Pending compound:
Exercise: Report inhibition, nothing else, for this compound: CCc1cc2c(=O)n(-c3ccccc3)c(SCC(=O)O)nc2s1
Key: -1.73% (inactive)
